assay: Plasma pharmacokinetics after oral administration in gelatin capsules; type: in vivo, Beagle dogs; details: Beagle, dog, oral 0.15 mg kg^−1 b.i.d. group, single dog with minimal Kgp inhibition, read-out: plasma Cmax of the one dog with lowest exposure

[
  {
    "SAMPLE_SMILES": "NCCCC[C@H](NC(=O)C1CCCC1)C(=O)COc1c(F)ccc(F)c1F",
    "Cmax, ng/mL": 2.73
  }
]

====

experiment: Plasma pharmacokinetics after oral administration in gelatin capsules; format: in vivo, Beagle dogs; settings: both sexes, Beagle, dog, po, 0.5 mg/kg, 0.5 mg kg^-1 oral, single oral dose (Figure 2C), mean ± SD, read-out: F

[
  {
    "SAMPLE_SMILES": "NCCCC[C@H](NC(=O)C1CCCC1)C(=O)COc1c(F)ccc(F)c1F",
    "bioavailability (%)": 105
  }
]
